Record form. Attribute: screen value. Fill in for each entry.
B1: TPTE2 peptide 94-109 (Phosphatidylinositol 3,4,5-trisphosphate 3-phosphatase TPTE2), 16-mer library wild type / TLN1 PTB (TLN1 Phosphotyrosine-binding (PTB) domain, residues 309-401) (parent)
chain 1: DLIFTDSKLYIPLEYR
chain 2: GVSFFLVKEKMKGKNKLVPRLLGITKECVMRVDEKTKEVIQEWNLTNIKRWAASPKSFTLDFGDYQDGYYSVQTTEGEQIAQLIAGYIDIILK

Variants of: B1
ASSAY_REMARKS: proteomic peptide phage display deep mutational scan (ProP-PD DMS): M13 P8 16-mer library selected against immobilised GST-tagged bait for four days (rounds), NGS of the eluted pools per day and pseudo-replica
SETUP_CONDITIONS: with TLN1 PTB (TLN1 Phosphotyrosine-binding (PTB) domain, residues 309-401); bait immobilised on MaxiSorp plates (10 µg), library pre-cleared on GST, 2 h binding at 4 °C, five washes; one round per day, days 1-4; value from days 2 and 3; keep out of graded; scale: average fractional NGS count over selection days 2 and 3
Just the number.

Query: Please supply the value of reported screen value for the item chain 1 D1S
Response: 0.000249

Query: Please supply the value of reported screen value for the item chain 1 T5S
Response: 4.81e-05

Query: Please supply the value of reported screen value for the item chain 1 I3M
Response: 0.000353

Query: Please supply the value of reported screen value for the item chain 1 L2A
Response: 0.000378

Query: Please supply the value of reported screen value for the item chain 1 I11V
Response: 0.0012

Query: Please supply the value of reported screen value for the item chain 1 L13N
Response: 6.62e-05

Query: Please supply the value of reported screen value for the item chain 1 D1F
Response: 2.74e-05

Query: Please supply the value of reported screen value for the item chain 1 D1K
Response: 0

Query: Please supply the value of reported screen value for the item chain 1 L2Y
Response: 0.000116

Query: Please supply the value of reported screen value for the item chain 1 I3V
Response: 0.00384

Query: Please supply the value of reported screen value for the item chain 1 E14V
Response: 3.45e-05

Query: Please supply the value of reported screen value for the item chain 1 S7A
Response: 0

Query: Please supply the value of reported screen value for the item chain 1 K8V
Response: 0

Query: Please supply the value of reported screen value for the item chain 1 I3S
Response: 0.000211

Query: Please supply the value of reported screen value for the item chain 1 E14L
Response: 6.19e-05

Query: Please supply the value of reported screen value for the item chain 1 K8Q
Response: 0.00121

Query: Please supply the value of reported screen value for the item chain 1 F4T
Response: 0

Query: Please supply the value of reported screen value for the item chain 1 I11H
Response: 0.000432

Query: Please supply the value of reported screen value for the item chain 1 Y15W
Response: 0.00208

Query: Please supply the value of reported screen value for the item chain 1 I11F
Response: 6.22e-05

Query: Please supply the value of reported screen value for the item chain 1 Y15H
Response: 0.000355

Query: Please supply the value of reported screen value for the item chain 1 K8P
Response: 0.0034

Query: Please supply the value of reported screen value for the item chain 1 L2G
Response: 0.000486

Query: Please supply the value of reported screen value for the item chain 1 K8E
Response: 0.000109

Query: Please supply the value of reported screen value for the item chain 1 T5N
Response: 0.000128

Query: Please supply the value of reported screen value for the item chain 1 Y15L
Response: 0.00052

Query: Please supply the value of reported screen value for the item chain 1 E14Q
Response: 0.000195

Query: Please supply the value of reported screen value for the item chain 1 D1I
Response: 0

Query: Please supply the value of reported screen value for the item chain 1 T5F
Response: 0.000105

Query: Please supply the value of reported screen value for the item chain 1 Y15S
Response: 0.00054

Query: Please supply the value of reported screen value for the item chain 1 L13P
Response: 0.000483

Query: Please supply the value of reported screen value for the item chain 1 K8Y
Response: 9.03e-05

Query: Please supply the value of reported screen value for the item chain 1 Y15M
Response: 0.00159

Query: Please supply the value of reported screen value for the item chain 1 L13I
Response: 0.00223

Query: Please supply the value of reported screen value for the item chain 1 D6W
Response: 3.79e-05

Query: Please supply the value of reported screen value for the item chain 1 L13E
Response: 5.82e-05

Query: Please supply the value of reported screen value for the item chain 1 I3F
Response: 0.0002

Query: Please supply the value of reported screen value for the item chain 1 K8T
Response: 9.24e-05

Query: Please supply the value of reported screen value for the item chain 1 K8G
Response: 0.000416

Query: Please supply the value of reported screen value for the item chain 1 L2T
Response: 0.000185

Query: Please supply the value of reported screen value for the item chain 1 Y15F
Response: 0.000157

Query: Please supply the value of reported screen value for the item chain 1 Y15N
Response: 0.000999

Query: Please supply the value of reported screen value for the item chain 1 L13K
Response: 0.00129

Query: Please supply the value of reported screen value for the item chain 1 Y10F
Response: 6.96e-05

Query: Please supply the value of reported screen value for the item chain 1 T5W
Response: 4.49e-05

Query: Please supply the value of reported screen value for the item chain 1 I11K
Response: 3.45e-05
